Tested on: MDA-MB-435 melanoma
Test: NCI-60 one-dose screen, 48 h (100 = growth as untreated, 0 = no growth, -100 = all killed)
Settings: 10 µM
Protocol: Growth inhibition of the MDA-MB-435 human Melanoma tumor cell line is measured as a screen for anti-cancer activity. Cells are grown in 96 well plates and exposed to the test compound for 48 hours. Compounds are tested at a single concentration, which is 10^-5 M for most compounds. The reported endpoint is percent growth (GI% or GIPRCNT), where numbers from 0 - 100% represent growth inhibition, and numbers from -100% - 0 represent cell death. […]
Compounds without any hit were thinned out: in the full panel of roughly 83,000, 20% have a hit.
So basically, if growth comes in under -20% it's t, and if it's -20% or more it's f.

Is it true that growth reported for COc1cccc2nc(Nc3cccc(NC(=O)c4ccc(CN5CCCN(C)CC5)c(C(F)(F)F)c4)c3)ccc12 is less than -20%? t

Is it true that growth reported for COc1cc(/C=C/C(=O)c2cc(OC)c(OC)c(OC)c2)ccc1Oc1nc(Nc2ccc(F)cc2)nc(N(C)C)n1 is less than -20%? t

Is it true that growth reported for CN1CCN(c2ccc(Nc3nc(NCCNC(=O)c4ccc(C(F)(F)F)cc4)c4sccc4n3)cc2)CC1 is less than -20%? t

Is it true that growth reported for O=C(Nc1ccc(Cl)c([N+](=O)[O-])c1)Nc1ccc(Cl)c([N+](=O)[O-])c1 is less than -20%? f

Is it true that growth reported for COc1ccc(CN2[C@H](C(=O)NCCCCCCC(=O)NO)Cc3c([nH]c4ccccc34)[C@H]2C2CC2)cc1 is less than -20%? t

Is it true that growth reported for Cn1cc(-c2cc(N)n3nc(-c4c[nH]c5ccc(Br)cc45)cc3n2)c2cccnc21 is less than -20%? t

Is it true that growth reported for O=C1c2ccccc2C(=O)c2c1c(C(=O)c1ccc(Cl)cc1)n1c2ccc2c3ccccc3ccc21 is less than -20%? f

Is it true that growth reported for COc1ccc2c(c1)N=C(C(=O)O)/C2=C/c1sc(Nc2ccc(O)cc2)nc1O is less than -20%? f

Is it true that growth reported for CN(C)c1nc(NCCNS(=O)(=O)c2ccc(C(=O)/C=C/c3ccccc3)cc2)nc(Nc2ccc(F)cc2)n1 is less than -20%? f

Is it true that growth reported for COc1ccc(N2N=C(c3ccc4c(c3)OCCO4)CC2c2cccc(NC(=O)CCCNS(=O)(=O)c3ccc(F)cc3)c2)cc1 (stereo unspecified) is less than -20%? f
